This collection of values is drawn from patent US20200299384A1.

- TARGET_OF_ASSAY: T1, human CD3 expressed on cells (Jurkat cells; human CD4 T cells) (human, UniProt P07766 23-207)
- T1 construct: whole, on cells; also called human CD3 receptor on T cell surface; human CD3 expressing cells (Jurkat cells)
- EXPERIMENT_SUMMARY: flow cytometry on Jurkat cells, one site saturation fit
- Set-up: unit not given here
OBSERVATION_TYPE: Best fit-Bmax
Enter a number only.

Check out these entries, answers already filled in.
- BINDER: "WBP3311_2.400.5 (antibody, V domains shown, Mouse monoclonal antibody from hybridoma; also called W3311-2.400.5) VH: QVQLQQSGPELVNPGASVKISCKASGYSFTNYYLHWVKQRPGQGLEWIGWIFPESDNTKYNEKLKGKATLTADTSSDTAYMHLSSLTFEDSAVYFCARDSVGNYFFDFWGQGTTLTVSS VL: DIVMSQSPSSLAVSAGEKVTMRCKSSQSLVNNRTRKNYLAWYQQKPGQPPKLLIYWASTRESGVPDRFTGSGSGTDFTLTISSVQAEDLAVYYCAQSFILRTFGGGTKLEIK"
  REPORTED_RESULT: "1.13e-10"
- BINDER: "WBP3311_2.615.8 (antibody, V domains shown, Mouse monoclonal antibody from hybridoma; also called W3311-2.615.8) VH: QVQLQQSGPELVKPGTSMKISCKASGYSFTDFYTHWVRQRPGQGLEWIGWIFPGSDNIKYNEKFKGKATLTADTSSSTAYMQLSSLTSEDSAVYFCARDSVSVYYFDYWGQGTTLTVSS VL: DIVMSQSPSSLAVTAGEKVTMSCKSSQSLLNIRTRKNYLAWYQQKPGQSPKLLIYWASTRDSGVPDRFTGSGSGTDFTLTISSVQAEDLAVYYCTQSFILRTFGGGTKLEIK"
  REPORTED_RESULT: "1.2e-10"
- BINDER: "WBP3311_2.306.4 (antibody, IgG2b, V domains shown, Mouse monoclonal antibody from hybridoma; also called W3311-2.306.4; W3311-2.306.4-mIgG2bK) VH: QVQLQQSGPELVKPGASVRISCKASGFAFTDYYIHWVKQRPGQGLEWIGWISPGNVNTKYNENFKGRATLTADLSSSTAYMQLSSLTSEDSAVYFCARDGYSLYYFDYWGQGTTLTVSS VL: DIVMSQSPSSLTVSAGEKVTMSCKSSQSLLNSRTRKNYLAWYQQKPGQSPKLLIYWASTRQSGVPDRFTGSGSGTAFTLTISGVQAEDLAVYFCTQSHTLRTFGGGTKLEIK"
  REPORTED_RESULT: "1.17e-10"
- BINDER: "WBP3311_2.844.8 (antibody, V domains shown, Mouse monoclonal antibody from hybridoma; also called W3311-2.844.8; clone 2.844.8) VH: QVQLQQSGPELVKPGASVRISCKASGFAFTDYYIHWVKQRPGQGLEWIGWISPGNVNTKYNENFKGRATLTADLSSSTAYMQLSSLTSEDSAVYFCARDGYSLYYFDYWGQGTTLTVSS VL: DIVMSQSPSSLTVSAGEKVTMSCKSSQSLLNSRTRKNYLAWYQQKPGQSPKLLIYWASTRESGVPDRFTGSGSGTAFTLTISGVQAEDLAVYFCTQSHTLRTFGGGTKLEIK"
  REPORTED_RESULT: "1.19e-10"
- BINDER: "WBP3311_2.482.5 (antibody, V domains shown, Mouse monoclonal antibody from hybridoma; also called W3311-2.482.5) VH: QVQLQQSGPELVKPGSSVKISCKPSGYTFTTYYIHWVKQRPGQGLEWIGWIFPGSDNIKYNENFKDKATLTADTSSSTAYMQLSSLTSEDSAVYFCARDSVSRYYFDYWGQGTILTVSS VL: DIVMSQSPSSLAVSAGEKVTMSCKSSQSLVNDRTRKNYLAWYQQKPGLSPKLLIYWASTRESGVPDRFTGSGSGTDFTLTISSVQAEDLAVYYCAQSFILRTFGGGTKLEIK"
  REPORTED_RESULT: "1.3e-10"

// next entry
[in] Look up and state reported Best fit-Bmax for WBP331_2.488.33 (antibody, V domains shown, Mouse monoclonal antibody from hybridoma; also called WBP3311_2.488.33; W3311-2.488.33) VH: QVQLQQSGPELVKPGTSVKISCKASGFSFTNYYIHWVKQRPGQGPEWIGWIFPGTVNTKYNEKFKGKATLTADTSSNTAFMQLSSLTSADSAVYFCARDSVGIYYFDFWGLGTTLTVSS VL: DIVMSQSPSSLAVSAGEKVTVSCKSSQSLLNNRTRKNYLAWYQQKPGQSPKLLIYWASTRESGVPDRFTGSGSGTDFTLTISSVQAEDLAVYYCTQSFILRTFGGGTKLEIK
[out] 1.3e-10
